- TGT: HCV NS3/4A PR (S139A):simeprevir complex (Hepatitis C virus subtype 1a)
- METHOD NOTES: HTRF, with simeprevir
Quick reference: HTRF max. signal (% delta F) of the listed items.
Write the number in % delta F without appending the unit.

Entry PRSIM_36 (designed binder) RLDAPSQIEVKDVTDTTALITWSWPRDDDYDIWYFELTYGIKDVPGDRTTIKLLNYASPYSIGNLKPDTEYEVSLISVVPDTYGRGTSNPAKITFKTGL has what HTRF max. signal (% delta F)?
1440

Please give the measured HTRF max. signal (% delta F) for this binder: PRSIM_32 (designed binder) RLDAPSQIEVKDVTDTTALITWWSPRYYYASISGFELTYGIKDVPGDRTTIKLDYASNDYSIGNLKPDTEYEVSLISWNYGDWRYSSSNPAKITFKTGL
1960

Form field: reported HTRF max. signal (% delta F) of PRSIM_47 (designed binder) RLDAPSQIEVKDVTDTTALITWSRPGVSIWYFELTYGIKDVPGDRTTIKLDYRSYYYSIGNLKPDTEYEVSLISGSYGLVGVRASNPAKITFKTGL
1370

Consider the additional binder presented here.
Need HTRF max. signal (% delta F), item PRSIM_33 (designed binder) RLDAPSQIEVKDVTDTTALITWYPPGRWYDDIWYFELTYGIKDVPGDRTTIKLARGDDVYSIGNLKPDTEYEVSLISWGPDRGDRAGSNPAKITFKTGL
1700

Values from patent US20220380801A1
